assay: Extraction of isobutanol from an aqueous solution by ionic liquid (HPLC)
Format: physicochemical
runConditions: 3 mL aqueous solution about 31 g/L isobutanol, 5 vol % ionic liquid, overnight equilibration; control 436
quantity: mM isobutanol (in solution after equilibration) (mM)
Report the figure in mM without appending any unit label.

Ask: Entry under review: COCC[N+](C)(C)CCN1C(=O)CCC1C (stereo not shown) . Reported mM isobutanol (in solution after equilibration)?
Reply: 423

Ask: One more molecule: CCC[N+](C)(C)CCN1C(=O)CCC1C.O=S(=O)([N-]S(=O)(=O)C(F)(F)F)C(F)(F)F (stereo not shown)
Reply: 387

Ask: One more molecule: COCC[N+](C)(C)CCN1C(=O)CCC1C.O=S(=O)([N-]S(=O)(=O)C(F)(F)F)C(F)(F)F (stereo not shown)
Reply: 389

Ask: One more molecule: CC1CCC(=O)N1CC[N+](C)(C)CCO.O=S(=O)([N-]S(=O)(=O)C(F)(F)F)C(F)(F)F (stereo not shown)
Reply: 417

The origin of these recorded values is patent US20100140166A1.
